# credit: PubChem BioAssay (NCI)

# Tested on: MALME-3M melanoma
# TEST: NCI tumour cell line growth inhibition, 48 h
Listed molecules paired with reported TGI

The examples below pair each entry with its known result.
O=Cc1ncc(-c2ccc(C(F)(F)F)cc2)c(NC2CCCCCC2)n1 :: > 10 µM
Fc1cc(C2=C[C@H](c3ccc4c(c3)OCO4)NC(=S)N2)c(Cl)cc1Cl :: 95.4 µM
C[C@@]12CCC[C@@](C)(C(=O)O)C1CC[C@]13C=C(CO)[C@](O)(CCC12)C3 (stereo partly specified) :: > 100 µM
C/C(=N\N=C(\N)OB(F)F)c1ccccn1 :: > 100 µM
O=P(O)(O)OP(=O)(O)O :: > 100 µM

Now consider the entry below.
[ask] GET /values?readout=TGI&item= `CCCCCCCCCCCCCCCCc1c(C(=O)OC)[nH]c(=S)[nH]c1=O`
[reply] > 50 µM

* * *

# System: TK-10 renal
# TEST: NCI tumour cell line growth inhibition, 48 h; in the data active means GI50 below about 0.43 µM; inactive means the rest
Select the matching outcome among y for active, n for inactive

NC(=O)Cc1ccccc1Oc1nccc(-c2c(-c3ccc(F)cc3)ncn2C2CCNCC2)n1 :: n
NC(=O)c1cccc(N)c1 :: n

[ask] What did the test return for `N#Cc1cc(-c2ccccc2)[nH]c1-c1nccc2ccccc12` ?
[reply] n

[ask] What did the test return for `O=C(/C=C\c1cccc([N+](=O)[O-])c1)c1ccccc1` ?
[reply] n

[ask] What did the test return for `Cc1oncc1C(=O)Nc1ccc(C(F)(F)F)cc1` ?
[reply] n

* * *

# System: 786-0 renal
# TEST: NCI tumour cell line growth inhibition, 48 h; in the data active = GI50 below about 0.43 µM; inactive = the rest
Select the matching outcome among label 1 (active), label 0 (inactive)

O=C1OCC2=C1C(c1cccc([N+](=O)[O-])c1)c1cc3c(cc1N2CCO)CCC3 (stereo unspecified) :: label 1
O=[N+]([O-])c1ccc(Oc2cccnc2)c([N+](=O)[O-])c1 :: label 0
COc1ccc(Nc2nc(NCc3ccccc3)c3ccccc3n2)cc1 :: label 0
NC(=O)c1ncn(C2OC(CO)C(O)C2O)n1 (stereo unspecified) :: label 0

[ask] What did the test return for `CCOc1ccc(/C=N/Nc2cc(C)nc3ccc(Cl)cc23)cc1` ?
[reply] label 0

[ask] What did the test return for `Clc1ccc(-c2nc(-c3c[nH]c4ncccc34)cs2)cc1` ?
[reply] label 0

* * *

# System: MDA-N
# TEST: NCI tumour cell line growth inhibition, 48 h
READOUT_NAME: TGI

The examples below pair each entry with its known result.
CCOc1cc(NC(C)=O)ccc1C(=O)N/N=C/c1ccco1 :: > 100 µM
O=C1C(=O)c2ccccc2C=C1[N+](=O)[O-] :: 39.2 µM
CC(=O)Oc1ccn2nc(C)c(Cc3c(C)nn4ccc(OC(C)=O)cc34)c2c1 :: > 10 µM
CCOC(=O)c1c(NS(=O)(=O)c2ccc(Br)cc2)sc2c1CCCC2 :: 52.9 µM
NC(Cc1cc(Br)c(O)c(Br)c1)C(=O)O (stereo not drawn) :: > 100 µM
O=C1OC(C2Cc3cc4c(cc3C2=O)CCC4)c2ccccc21 (stereo not drawn) :: > 100 µM
Cc1cc2c(cc1C)C(=O)c1ncccc1C2=O :: 36.2 µM
N#Cc1cc2c(n(C3OC(CO)C(O)C(O)C3O)c1=S)CCCCC2 (stereo not drawn) :: > 100 µM

[ask] GET /values?readout=TGI&item= CCOC(=O)CC(=O)N(c1ccc(OC)cc1)C(C(=O)OC)c1ccccc1 (stereo not drawn)
[reply] > 100 µM

[ask] GET /values?readout=TGI&item= `C#CCn1c(=O)c(C)cn(/C(=C/C(=O)OCC)C(=O)OCC)c1=O`
[reply] 43.8 µM

[ask] GET /values?readout=TGI&item= `CSc1c(C#N)c(O)n(-c2ccc(Cl)cc2)c(=O)c1C#N`
[reply] > 100 µM

[ask] GET /values?readout=TGI&item= CCC(C#N)N(Cc1ccc(CN(C(=O)c2ccccc2)C(C#N)CC)cc1)C(=O)c1ccccc1 (stereo not drawn)
[reply] > 100 µM

[ask] GET /values?readout=TGI&item= `Nc1cc(OCc2ccccc2)c(OCc2ccccc2)cc1C=O`
[reply] > 100 µM

[ask] GET /values?readout=TGI&item= CCN(CC)CC(O)CNc1ccc(NCC(O)CCl)c2c1C(=O)c1ccccc1C2=O (stereo not drawn)
[reply] 19.7 µM

[ask] GET /values?readout=TGI&item= CC(/C=C/C=C/C=C/C=C/C=C/C(O)=C1/C(=O)C(CCC(=O)O)N(C)C1=O)=C\C(C)C(OC1CC(O)C(O)C(C)O1)C(C)C (stereo not drawn)
[reply] 12.7 µM
